Test description: Solubility at saturation of F12511 in solvents at 25° C.
Format: physicochemical
Assay conditions: water, 25 °C, water, thermodynamic from solid, Water, 25° C.; limit of analytical detection; read-out: Solubility at saturation
Recorded metric: solubility

1) CCCCCCCCCCCCS[C@H](C(=O)Nc1cc(C)c(O)c(C)c1C)c1ccccc1 [Example F12511]	< 0.05 µg/mL

###

Test description: Solubility at saturation of F12511 in solvents at 25° C.
Format: physicochemical
Assay conditions: ethanol, 25 °C, organic solvent or mixture, thermodynamic from solid, Ethanol, 25° C.; read-out: Solubility at saturation
Recorded metric: solubility (µg/mL)

1. CCCCCCCCCCCCS[C@H](C(=O)Nc1cc(C)c(O)c(C)c1C)c1ccccc1	7000

###

Test description: physchem
Assay conditions: 25 °C, aqueous with cosolvent or surfactant or cyclodextrin, thermodynamic from solid, Amount of F12511 solubilized in a solution of sodium lauryl sulfate at 5%
Recorded metric: solubility at 5 min (µg/mL)

1) CCCCCCCCCCCCS[C@H](C(=O)Nc1cc(C)c(O)c(C)c1C)c1ccccc1 [Example F12511]	1

###

Test description: physchem
Assay conditions: 25 °C, aqueous with cosolvent or surfactant or cyclodextrin, thermodynamic from solid, Amount of F12511 solubilized in a solution of sodium lauryl sulfate at 5%
Recorded metric: solubility at 30 min (µg/mL)

1. CCCCCCCCCCCCS[C@H](C(=O)Nc1cc(C)c(O)c(C)c1C)c1ccccc1	3

###

Test description: Solubility at saturation of F12511 in solvents at 25° C.
Assay type: physicochemical
Assay conditions: Macrogol 400, 25 °C, organic solvent or mixture, thermodynamic from solid, Macrogol 400, 25° C.; read-out: Solubility at saturation
Recorded metric: solubility (µg/mL)

1) CCCCCCCCCCCCS[C@H](C(=O)Nc1cc(C)c(O)c(C)c1C)c1ccccc1	1000

###

Test description: Solubility at saturation of F12511 in solvents at 25° C.
Assay type: physicochemical
Assay conditions: water, 25 °C, water, thermodynamic from solid, water; limit of analytical detection; read-out: Solubility at saturation in water
Recorded metric: solubility

1. CCCCCCCCCCCCS[C@H](C(=O)Nc1cc(C)c(O)c(C)c1C)c1ccccc1	< 0.05 µg/mL
